# Lookup of reported INHIBITION OF PAI-1 (degree of inhibition) keyed by entry
Target: PAI-1 (Homo sapiens)
Sequence (P05121 24-402): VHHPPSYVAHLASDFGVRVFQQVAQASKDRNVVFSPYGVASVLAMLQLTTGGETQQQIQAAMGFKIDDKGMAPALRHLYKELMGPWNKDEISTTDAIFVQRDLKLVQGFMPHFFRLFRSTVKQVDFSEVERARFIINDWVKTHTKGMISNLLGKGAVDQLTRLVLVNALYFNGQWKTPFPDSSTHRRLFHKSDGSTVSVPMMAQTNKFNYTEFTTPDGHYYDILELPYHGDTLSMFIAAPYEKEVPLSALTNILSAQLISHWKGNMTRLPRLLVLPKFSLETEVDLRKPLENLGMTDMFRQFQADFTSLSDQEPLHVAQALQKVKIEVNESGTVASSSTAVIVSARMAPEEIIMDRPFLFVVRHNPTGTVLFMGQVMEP
Experiment: PAI-1 inhibition in the S2251 chromogenic substrate assay (PAI functional assay)
Assay type: biochemical
Conditions: 12.5 μm; Table 1, first part; unit assumed
Description: In this assay, a compound is incubated with PAI-1 prior to addition to the tPA assay system. Inhibition of PAI-1 results in the production of plasmin from plasminogen. […] Compounds of formula (A) were tested in a PAI chromogenic substrate assay. […] In turn, the plasmin cleaved the chromogenic substrate S2251 (Kabi-Vitrum) producing pNA (p-nitroaniline) which was detected scectrophotometrically at 405 nm.
property measured: INHIBITION OF PAI-1 (degree of inhibition) (%)

item_smiles=CN(C)CCCOc1ccc(/C=c2\[nH]c(=O)/c(=C/c3ccc(Cn4ccnc4)cc3)[nH]c2=O)cc1 recorded_number=0
item_smiles=COc1ccc(/C=c2\[nH]c(=O)/c(=C/c3ccc(OC(=O)CN4C(=O)c5ccccc5C4=O)cc3)[nH]c2=O)cc1 recorded_number=6
item_smiles=COc1cc(C=C/C=c2\[nH]c(=O)/c(=C/c3ccccc3)[nH]c2=O)ccc1OCCN(C)C recorded_number=2
item_smiles=CC(C)(C)OC(=O)n1cc(/C=c2\[nH]c(=O)/c(=C/c3ccccc3)[nH]c2=O)c2ccccc21 recorded_number=6
item_smiles=Cc1[nH]cnc1/C=c1\[nH]c(=O)/c(=C/c2ccccc2)[nH]c1=O recorded_number=22
item_smiles=COc1ccc(/C=c2\[nH]c(=O)/c(=C/c3ccc4c(c3)OCO4)[nH]c2=O)cc1 recorded_number=7
item_smiles=O=c1[nH]/c(=C\c2ccc(OCCn3ccnc3)cc2)c(=O)[nH]/c1=C\c1ccccc1 recorded_number=61
